target: ACSS2 (Homo sapiens, UniProt Q9NR19); construct: endogenous fatty acid synthesis activity in the human HCT-15 cancer cell line; endogenous in cells; host or cells: HCT-15; assay: Cellular assay of 14C acetate incorporation into histones (IC50 ACSS2 cellular histone); assay type: cell-based; conditions: HCT-15 cells
Sequence (Q9NR19 whole entry): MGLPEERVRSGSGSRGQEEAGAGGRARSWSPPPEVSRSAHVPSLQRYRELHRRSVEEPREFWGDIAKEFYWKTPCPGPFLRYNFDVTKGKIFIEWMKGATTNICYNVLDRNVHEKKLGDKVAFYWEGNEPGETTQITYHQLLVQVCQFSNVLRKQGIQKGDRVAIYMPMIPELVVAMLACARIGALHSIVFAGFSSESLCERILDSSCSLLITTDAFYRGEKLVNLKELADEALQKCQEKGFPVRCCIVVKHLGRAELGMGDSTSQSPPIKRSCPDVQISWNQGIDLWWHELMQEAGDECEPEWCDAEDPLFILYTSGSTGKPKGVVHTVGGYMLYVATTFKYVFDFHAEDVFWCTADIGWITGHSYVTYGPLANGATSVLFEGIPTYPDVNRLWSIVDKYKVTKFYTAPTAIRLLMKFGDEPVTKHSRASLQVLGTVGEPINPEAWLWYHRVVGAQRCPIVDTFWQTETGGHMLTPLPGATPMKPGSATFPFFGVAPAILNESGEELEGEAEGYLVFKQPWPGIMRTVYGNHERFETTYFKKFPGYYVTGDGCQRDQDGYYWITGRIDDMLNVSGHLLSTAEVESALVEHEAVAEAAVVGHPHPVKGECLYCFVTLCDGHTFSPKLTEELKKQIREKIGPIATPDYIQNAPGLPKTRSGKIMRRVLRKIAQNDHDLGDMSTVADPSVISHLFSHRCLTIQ
pIC50: −log10 of the molar value.
Some molecules, each annotated with its measured pIC50.

Example cases with answers are listed next.
[
  {
    "molecule": "CCc1nnc(NC(=O)c2cc3c(nc2OC)nc(C(O)(c2ccccc2)c2ccccc2)n3CC)o1 [Compound 64]",
    "quantityKind": "pIC50",
    "result": "7.00 to 8.00"
  },
  {
    "molecule": "CCn1cc(NC(=O)c2cc3c(nc2C)nc(C(O)(c2ccccc2)c2ccccc2)n3CC)cn1 [Compound 109]",
    "quantityKind": "pIC50",
    "result": "8.00 to 9.00"
  },
  {
    "molecule": "CCn1cc(NC(=O)c2cc3c(nc2OC)nc(C(O)(c2ccccc2F)c2ccccc2F)n3CC)cn1 [Compound 104]",
    "quantityKind": "pIC50",
    "result": "8.00 to 9.00"
  },
  {
    "molecule": "CCn1cc(NC(=O)c2cc3c(nc2F)nc(C(O)(c2ccccc2F)c2ccccc2F)n3CC)cn1 [Compound 90]",
    "quantityKind": "pIC50",
    "result": "8.00 to 9.00"
  },
  {
    "molecule": "CCc1c(C(O)(c2ccccc2)c2ccn(C)n2)nc2cc(OC)c(C(=O)Nc3ncn(CC)n3)cn12 (single isomer, unassigned) [Compound 22]",
    "quantityKind": "pIC50",
    "result": "7.00 to 8.00"
  },
  {
    "molecule": "CCn1cc(NC(=O)c2cc3c(nc2OC)nc(C(O)(c2ccc(OC(F)F)cc2)c2ccccc2F)n3CC)cn1 (racemic) [Compound 88]",
    "quantityKind": "pIC50",
    "result": "7.00 to 8.00"
  }
]

We next turn to a different molecule, shown below.
I have this molecule here, CCn1cnc(NC(=O)c2cc3c(nc2OC)nc(C(O)(c2ccccn2)c2cccs2)n3CC)n1 (racemic) [Compound 43] , and I need its recorded pIC50.
7.00 to 8.00
